Target: B. malayi iPGM (Brugia malayi, UniProt Q4VWF8)
Sequence (Q4VWF8 1-515): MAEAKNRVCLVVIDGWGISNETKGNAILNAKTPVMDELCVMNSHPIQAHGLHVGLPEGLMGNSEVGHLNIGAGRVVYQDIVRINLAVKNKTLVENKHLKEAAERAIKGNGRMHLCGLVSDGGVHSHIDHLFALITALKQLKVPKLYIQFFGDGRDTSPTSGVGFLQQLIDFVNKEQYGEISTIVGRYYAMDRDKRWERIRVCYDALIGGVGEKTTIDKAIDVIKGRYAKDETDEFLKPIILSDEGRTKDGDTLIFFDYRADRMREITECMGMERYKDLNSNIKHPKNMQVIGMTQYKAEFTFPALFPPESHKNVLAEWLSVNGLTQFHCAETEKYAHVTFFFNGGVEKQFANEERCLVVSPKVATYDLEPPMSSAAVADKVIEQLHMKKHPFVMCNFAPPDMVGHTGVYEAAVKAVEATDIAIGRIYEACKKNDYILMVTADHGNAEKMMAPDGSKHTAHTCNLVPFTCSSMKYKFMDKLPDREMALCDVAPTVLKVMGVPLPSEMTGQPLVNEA
Experiment: biochemical
Assay type: binding
Bridge positions count the residues as written; N and C are the ends. Square brackets hold non-standard residues; d marks the D form. Peptide text beside a SMILES is read from it. Abu = CC[C@H](N)C(=O)O

{"columns": ["compound", "readoutUnit", "koff"],
 "data": [
  ["CC(C)C[C@H](NC(=O)[C@H](Cc1ccc(O)cc1)NC(=O)[C@@H]1CSCC(=O)N[C@H](Cc2ccc(O)cc2)C(=O)N[C@@H](CC(=O)O)C(=O)N[C@@H](Cc2ccc(O)cc2)C(=O)N[C@@H](C(C)C)C(=O)NCC(=O)N[C@@H](CC(=O)O)C(=O)N[C@@H](Cc2ccc(O)cc2)C(=O)N1)C(=O)N[C@@H](Cc1ccc(O)cc1)C(=O)NCC(=O)N[C@H](C(=O)N[C@@H](CS)C(N)=O)[C@@H](C)O", "s⁻¹", "7.52e-05"],
  ["CC(C)C[C@H](NC(=O)[C@H](Cc1ccc(O)cc1)NC(=O)[C@@H]1CSCC(=O)N[C@H](Cc2ccc(O)cc2)C(=O)N[C@@H](CC(=O)O)C(=O)N[C@@H](Cc2ccc(O)cc2)C(=O)N2CCC[C@H]2C(=O)NCC(=O)N[C@@H](CC(=O)O)C(=O)N[C@@H](Cc2ccc(O)cc2)C(=O)N1)C(=O)N[C@@H](Cc1ccc(O)cc1)C(=O)NCC(=O)N[C@@H](Cc1c[nH]cn1)C(=O)N[C@@H](CS)C(N)=O [Ce-2 T13H]", "s⁻¹", 0.000587],
  ["CC(C)C[C@H](NC(=O)[C@H](Cc1ccc(O)cc1)NC(=O)[C@@H]1CSCC(=O)N[C@H](Cc2ccc(O)cc2)C(=O)N[C@@H](CC(=O)O)C(=O)N[C@@H](Cc2ccc(O)cc2)C(=O)N2CCC[C@H]2C(=O)NCC(=O)N[C@@H](CC(=O)O)C(=O)N[C@@H](Cc2ccc(O)cc2)C(=O)N1)C(=O)N[C@@H](Cc1ccc(O)cc1)C(=O)NCC(=O)NCC(=O)N[C@@H](CS)C(N)=O [Ce-2 T13G]", "s⁻¹", "6.11e-05"],
  ["CC[C@@H]1NC(=O)[C@@H](Cc2ccc(O)cc2)NC(=O)CSC[C@@H](C(=O)N[C@@H](Cc2ccc(O)cc2)C(=O)N[C@@H](CC(C)C)C(=O)N[C@@H](Cc2ccc(O)cc2)C(=O)NCC(=O)N[C@H](C(=O)N[C@@H](CS)C(N)=O)[C@@H](C)O)NC(=O)[C@H](Cc2ccc(O)cc2)NC(=O)[C@H](CC(=O)O)NC(=O)CNC(=O)[C@@H]2CCCN2C(=O)[C@H](Cc2ccc(O)cc2)NC1=O [Ce-2 D2Abu] ({CH2CO}-[dY][Abu]YPGDYCYLYGTC-NH2; thioether N-8)", "s⁻¹", 0.000125]
]}

Values from paper PMC8113725
